target: AgSla1-D3; test: SPOT peptide array binding signal intensity (averaged, normalized) (arbitrary units (background-subtracted, floor 0; scale differs between SH3 domains)); higher = stronger binding of the SH3 domain to the peptide
The label depends only on SPOT peptide array binding signal intensity: fulfilled if it is at least 3, not fulfilled if it is smaller.

In [3]: df
Out[3]:
            binder          group
0  PPPPPPPPPPPLPQS  not fulfilled
1  QDKEGIPPDQQRLIF  not fulfilled
2  KTITLEVESSDTIDN  not fulfilled
3  FVLRYYILIPHEQWD  not fulfilled
4  AAHKTKPSIPPKKVE      fulfilled
5  LKVTPGRRAPTISKI  not fulfilled
6  VKPRQLFPIPLNKVD      fulfilled
